# Condition parameters: in n-pentanol, 278.15 K
Measured endpoint: solubility (mole fraction)
Answers are plain numbers.

stdin: Tell me its solubility (mole fraction) given O=Cc1cc(Br)c(O)c(Br)c1 as the entry.
stdout: 0.00662

====

# Condition parameters: in DMF, 308.15 K
Measured endpoint: solubility (mole fraction)
One number for each entry.

stdin: Tell me its solubility (mole fraction) given O=Cc1cc(Br)c(O)c(Br)c1 as the entry.
stdout: 0.0178

====

# Condition parameters: in cyclohexane, 323.15 K
Measured endpoint: solubility (mole fraction)
One number for each entry.

stdin: Tell me its solubility (mole fraction) given O=Cc1cc(Br)c(O)c(Br)c1 as the entry.
stdout: 0.00139

====

# Condition parameters: in acetonitrile, 313.15 K
Measured endpoint: solubility (mole fraction)

stdin: Tell me its solubility (mole fraction) given O=Cc1cc(Br)c(O)c(Br)c1 as the entry.
stdout: 0.00621

====

# Condition parameters: in n-octanol, 303.15 K
Measured endpoint: solubility (mole fraction)
Numbers only.

stdin: Tell me its solubility (mole fraction) given O=Cc1cc(Br)c(O)c(Br)c1 as the entry.
stdout: 0.016

====

# Condition parameters: in n-pentanol, 283.15 K
Measured endpoint: solubility (mole fraction)
One number for each entry.

stdin: Tell me its solubility (mole fraction) given O=Cc1cc(Br)c(O)c(Br)c1 as the entry.
stdout: 0.00744

====

# Condition parameters: in ethanol, 318.15 K
Measured endpoint: solubility (mole fraction)
One number for each entry.

stdin: Tell me its solubility (mole fraction) given O=Cc1cc(Br)c(O)c(Br)c1 as the entry.
stdout: 0.00851

====

# Condition parameters: in isopropanol, 308.15 K
Measured endpoint: solubility (mole fraction)
Numbers only.

stdin: Tell me its solubility (mole fraction) given O=Cc1cc(Br)c(O)c(Br)c1 as the entry.
stdout: 0.00731

====

# Condition parameters: in n-butanol, 298.15 K
Measured endpoint: solubility (mole fraction)
Give bare numbers.

stdin: Tell me its solubility (mole fraction) given O=Cc1cc(Br)c(O)c(Br)c1 as the entry.
stdout: 0.00726

====

# Condition parameters: in n-octanol, 293.15 K
Measured endpoint: solubility (mole fraction)
Give bare numbers.

stdin: Tell me its solubility (mole fraction) given O=Cc1cc(Br)c(O)c(Br)c1 as the entry.
stdout: 0.0121

====

# Condition parameters: in n-octanol, 298.15 K
Measured endpoint: solubility (mole fraction)
Answers are plain numbers.

stdin: Tell me its solubility (mole fraction) given O=Cc1cc(Br)c(O)c(Br)c1 as the entry.
stdout: 0.0139

====

# Condition parameters: in cyclohexane, 283.15 K
Measured endpoint: solubility (mole fraction)
Answers are plain numbers.

stdin: Tell me its solubility (mole fraction) given O=Cc1cc(Br)c(O)c(Br)c1 as the entry.
stdout: 0.000245

====

# Condition parameters: in n-butanol, 278.15 K
Measured endpoint: solubility (mole fraction)
One number for each entry.

stdin: Tell me its solubility (mole fraction) given O=Cc1cc(Br)c(O)c(Br)c1 as the entry.
stdout: 0.00412

====

# Condition parameters: in 1,4-dioxane, 288.15 K
Measured endpoint: solubility (mole fraction)
Numbers only.

stdin: Tell me its solubility (mole fraction) given O=Cc1cc(Br)c(O)c(Br)c1 as the entry.
stdout: 0.0128

====

# Condition parameters: in ethylene glycol, 278.15 K
Measured endpoint: solubility (mole fraction)

stdin: Tell me its solubility (mole fraction) given O=Cc1cc(Br)c(O)c(Br)c1 as the entry.
stdout: 0.00234

====

# Condition parameters: in acetonitrile, 293.15 K
Measured endpoint: solubility (mole fraction)
Numbers only.

stdin: Tell me its solubility (mole fraction) given O=Cc1cc(Br)c(O)c(Br)c1 as the entry.
stdout: 0.00328

====

# Condition parameters: in DMSO, 313.15 K
Measured endpoint: solubility (mole fraction)
One number for each entry.

stdin: Tell me its solubility (mole fraction) given O=Cc1cc(Br)c(O)c(Br)c1 as the entry.
stdout: 0.0152

====

# Condition parameters: in ethyl acetate, 283.15 K
Measured endpoint: solubility (mole fraction)
Give bare numbers.

stdin: Tell me its solubility (mole fraction) given O=Cc1cc(Br)c(O)c(Br)c1 as the entry.
stdout: 0.00634

====

# Condition parameters: in methanol, 298.15 K
Measured endpoint: solubility (mole fraction)

stdin: Tell me its solubility (mole fraction) given O=Cc1cc(Br)c(O)c(Br)c1 as the entry.
stdout: 0.00341

====

# Condition parameters: in n-butanol, 303.15 K
Measured endpoint: solubility (mole fraction)

stdin: Tell me its solubility (mole fraction) given O=Cc1cc(Br)c(O)c(Br)c1 as the entry.
stdout: 0.00846

====

# Condition parameters: in ethyl acetate, 278.15 K
Measured endpoint: solubility (mole fraction)
Answers are plain numbers.

stdin: Tell me its solubility (mole fraction) given O=Cc1cc(Br)c(O)c(Br)c1 as the entry.
stdout: 0.0055

====

# Condition parameters: in 1,4-dioxane, 313.15 K
Measured endpoint: solubility (mole fraction)

stdin: Tell me its solubility (mole fraction) given O=Cc1cc(Br)c(O)c(Br)c1 as the entry.
stdout: 0.0236

====

# Condition parameters: in acetonitrile, 323.15 K
Measured endpoint: solubility (mole fraction)
Answers are plain numbers.

stdin: Tell me its solubility (mole fraction) given O=Cc1cc(Br)c(O)c(Br)c1 as the entry.
stdout: 0.0086

====

# Condition parameters: in isobutanol, 288.15 K
Measured endpoint: solubility (mole fraction)
One number for each entry.

stdin: Tell me its solubility (mole fraction) given O=Cc1cc(Br)c(O)c(Br)c1 as the entry.
stdout: 0.0049

====

# Condition parameters: in cyclohexane, 308.15 K
Measured endpoint: solubility (mole fraction)
Answers are plain numbers.

stdin: Tell me its solubility (mole fraction) given O=Cc1cc(Br)c(O)c(Br)c1 as the entry.
stdout: 0.000791

====

# Condition parameters: in isobutanol, 323.15 K
Measured endpoint: solubility (mole fraction)
Give bare numbers.

stdin: Tell me its solubility (mole fraction) given O=Cc1cc(Br)c(O)c(Br)c1 as the entry.
stdout: 0.0132

====

# Condition parameters: in n-octanol, 313.15 K
Measured endpoint: solubility (mole fraction)
One number for each entry.

stdin: Tell me its solubility (mole fraction) given O=Cc1cc(Br)c(O)c(Br)c1 as the entry.
stdout: 0.021

====

# Condition parameters: in n-pentanol, 313.15 K
Measured endpoint: solubility (mole fraction)
One number for each entry.

stdin: Tell me its solubility (mole fraction) given O=Cc1cc(Br)c(O)c(Br)c1 as the entry.
stdout: 0.0176

====

# Condition parameters: in ethylene glycol, 298.15 K
Measured endpoint: solubility (mole fraction)
Numbers only.

stdin: Tell me its solubility (mole fraction) given O=Cc1cc(Br)c(O)c(Br)c1 as the entry.
stdout: 0.00476

====

# Condition parameters: in n-octanol, 283.15 K
Measured endpoint: solubility (mole fraction)
Give bare numbers.

stdin: Tell me its solubility (mole fraction) given O=Cc1cc(Br)c(O)c(Br)c1 as the entry.
stdout: 0.00908

====

# Condition parameters: in n-butanol, 308.15 K
Measured endpoint: solubility (mole fraction)

stdin: Tell me its solubility (mole fraction) given O=Cc1cc(Br)c(O)c(Br)c1 as the entry.
stdout: 0.0098

====

# Condition parameters: in methanol, 288.15 K
Measured endpoint: solubility (mole fraction)
One number for each entry.

stdin: Tell me its solubility (mole fraction) given O=Cc1cc(Br)c(O)c(Br)c1 as the entry.
stdout: 0.00252

====

# Condition parameters: in n-pentanol, 318.15 K
Measured endpoint: solubility (mole fraction)
Numbers only.

stdin: Tell me its solubility (mole fraction) given O=Cc1cc(Br)c(O)c(Br)c1 as the entry.
stdout: 0.02

====

# Condition parameters: in ethylene glycol, 318.15 K
Measured endpoint: solubility (mole fraction)
Numbers only.

stdin: Tell me its solubility (mole fraction) given O=Cc1cc(Br)c(O)c(Br)c1 as the entry.
stdout: 0.00923

====

# Condition parameters: in DMF, 313.15 K
Measured endpoint: solubility (mole fraction)
Numbers only.

stdin: Tell me its solubility (mole fraction) given O=Cc1cc(Br)c(O)c(Br)c1 as the entry.
stdout: 0.0201

====

# Condition parameters: in ethyl acetate, 308.15 K
Measured endpoint: solubility (mole fraction)
Give bare numbers.

stdin: Tell me its solubility (mole fraction) given O=Cc1cc(Br)c(O)c(Br)c1 as the entry.
stdout: 0.0131

====

# Condition parameters: in isobutanol, 318.15 K
Measured endpoint: solubility (mole fraction)
One number for each entry.

stdin: Tell me its solubility (mole fraction) given O=Cc1cc(Br)c(O)c(Br)c1 as the entry.
stdout: 0.0115

====

# Condition parameters: in acetonitrile, 278.15 K
Measured endpoint: solubility (mole fraction)
One number for each entry.

stdin: Tell me its solubility (mole fraction) given O=Cc1cc(Br)c(O)c(Br)c1 as the entry.
stdout: 0.002

====

# Condition parameters: in ethanol, 313.15 K
Measured endpoint: solubility (mole fraction)
One number for each entry.

stdin: Tell me its solubility (mole fraction) given O=Cc1cc(Br)c(O)c(Br)c1 as the entry.
stdout: 0.00742
